Assay: Determination of solubility (HPLC)
Format: physicochemical
Details: 37 °C, aqueous buffer, thermodynamic from solid
Below, each entry is listed alongside its reported solubility.
Please state the figure in µg/mL; there is no need to write the unit.

Before answering, review these 6 worked examples.
mol-smiles: COc1ccc(-c2oc3c(CC=C(C)C)c(O)cc(O)c3c(=O)c2OC(=O)CCC(=O)OCCOCCOCCOCCOCc2cn(CCO[C@H]3O[C@@H](CO)[C@H](O)[C@@H](O)[C@@H]3O)nn2)cc1
property: solubility
recorded-number: 48.5
--
mol-smiles: COc1ccc(-c2oc3c(CC=C(C)C)c(O)cc(O)c3c(=O)c2OC(=O)CCC(=O)OCCOCCOCCOCCOCc2cn([C@H]3O[C@@H](CO)[C@H](O)[C@@H](O)[C@@H]3O)nn2)cc1
property: solubility
recorded-number: 4.53
--
mol-smiles: COc1ccc(-c2oc3c(CC=C(C)C)c(O)cc(O)c3c(=O)c2OC(=O)CCC(=O)OCCOCCOCc2cn([C@H]3O[C@@H](CO)[C@H](O)[C@@H](O)[C@@H]3O)nn2)cc1
property: solubility
recorded-number: 0.991
--
mol-smiles: COc1ccc(-c2oc3c(CC=C(C)C)c(O)cc(O)c3c(=O)c2OC(=O)CCC(=O)OCCCOCc2cn(CCO[C@H]3O[C@@H](CO)[C@H](O)[C@@H](O)[C@@H]3O)nn2)cc1
property: solubility
recorded-number: 15.5
--
mol-smiles: COc1ccc(-c2oc3c(CC=C(C)C)c(O)cc(O)c3c(=O)c2OC(=O)CCC(=O)OCc2cn(CCOCCO[C@H]3O[C@@H](CO)[C@H](O)[C@@H](O)[C@@H]3O)nn2)cc1
property: solubility
recorded-number: 11
--
mol-smiles: COc1ccc(-c2oc3c(CC=C(C)C)c(O)cc(O)c3c(=O)c2OC(=O)CCC(=O)OCCOCCOCCOCc2cn(CCO[C@H]3O[C@@H](CO)[C@H](O)[C@@H](O)[C@@H]3O)nn2)cc1
property: solubility
recorded-number: 3.82

Could you now look at the following compound, please?
The recorded solubility for `COc1ccc(-c2oc3c(CC=C(C)C)c(O)cc(O)c3c(=O)c2OC(=O)CCC(=O)OCc2cn([C@H]3O[C@@H](CO)[C@H](O)[C@@H](O)[C@@H]3O)nn2)cc1` is 12

* * *

Assay: Determination of solubility (HPLC)
Assay type: physicochemical
Settings: aqueous buffer, thermodynamic from solid; PBS; 37° C. overnight; n = 3; read-out: Solubility, PBS
property: solubility

The recorded solubility for COc1ccc(-c2oc3c(CC=C(C)C)c(O)cc(O)c3c(=O)c2O)cc1 [Icaritin, reference compound] is 8.1 µg/mL

* * *

Assay: Determination of solubility (HPLC)
Assay type: physicochemical
Experimental: About 1.325 mg of Icaritin and the synthesized derivative were weighed and dissolved in 1.5 mL methanol respectively, then diluted with methanol into solutions of 10, 20, 50, 100, 150, 200, 500 μg/mL, and filtered over an organic-system filter head of 0.45 μm into sample bottles, obtaining the samples for test. […] The supernatants were taken into sample bottles and detected by HPLC. […]
property: Solubility, PBS

molecule: COc1ccc(-c2oc3c(CC=C(C)C)c(O)cc(O)c3c(=O)c2OC(=O)CCC(=O)OCc2cn(CCOC3OC(CO)C(O)C(O)C3O)nn2)cc1 (stereo not drawn) [Compound 39]
Solubility, PBS: 13.825 ± 0.937 µg/mL
--
molecule: COc1ccc(-c2oc3c(CC=C(C)C)c(O)cc(O)c3c(=O)c2OC(=O)CCC(=O)NCCCCCOCc2cn(C3O[C@H](CO)[C@@H](O)[C@H](O)[C@H]3O)nn2)cc1 (stereo partly drawn) [Compound 81]
Solubility, PBS: Insoluble
--
molecule: COc1ccc(-c2oc3c(CC=C(C)C)c(O)cc(O)c3c(=O)c2OC(=O)CCC(=O)OCCN(CCOCc2cn(CCOCCO[C@H]3O[C@@H](CO)[C@H](O)[C@@H](O)[C@@H]3O)nn2)c2ccccc2)cc1 [Compound 105]
Solubility, PBS: Insoluble
--
molecule: COc1ccc(-c2oc3c(CC=C(C)C)c(O)cc(O)c3c(=O)c2OC(=O)CCC(=O)OCCOCc2cn(CCOCCOC3OC(CO)C(O)C(O)C3O)nn2)cc1 (stereo not drawn) [Compound 73]
Solubility, PBS: Insoluble
--
molecule: COc1ccc(-c2oc3c(CC=C(C)C)c(O)cc(O)c3c(=O)c2OC(=O)CCC(=O)OCCOCc2cn(CCOC3OC(CO)C(O)C(O)C3O)nn2)cc1 (stereo not drawn) [Compound 72]
Solubility, PBS: 5.656 ± 1.131 µg/mL
--
molecule: COc1ccc(-c2oc3c(CC=C(C)C)c(O)cc(O)c3c(=O)c2OC(=O)CCC(=O)OCCOCc2cn(C3O[C@H](CO)[C@@H](O)[C@H](O)[C@H]3O)nn2)cc1 (stereo partly drawn) [Compound 71]
Solubility, PBS: Insoluble

The recorded Solubility, PBS for COc1ccc(-c2oc3c(CC=C(C)C)c(O)cc(O)c3c(=O)c2OC(=O)CCC(=O)OCCCCOCc2cn(CCOCCOC3OC(CO)C(O)C(O)C3O)nn2)cc1 (stereo not drawn) [Compound 89] is Insoluble

* * *

Assay: Determination of solubility (HPLC)
Format: physicochemical
property: Solubility, Water

compound: COc1ccc(-c2oc3c(CC=C(C)C)c(O)cc(O)c3c(=O)c2OC(=O)CCC(=O)NCCCCCOCc2cn(C3O[C@H](CO)[C@@H](O)[C@H](O)[C@H]3O)nn2)cc1 (stereo partly drawn)
result: Insoluble

compound: COc1ccc(-c2oc3c(CC=C(C)C)c(O)cc(O)c3c(=O)c2OC(=O)CCC(=O)OCCOCc2cn(CCOCCOC3OC(CO)C(O)C(O)C3O)nn2)cc1 (stereo not drawn)
result: Insoluble

compound: COc1ccc(-c2oc3c(CC=C(C)C)c(O)cc(O)c3c(=O)c2OC(=O)CCC(=O)OCCOCCOCc2cn(CCO[C@@H]3O[C@H](CO)[C@@H](O)[C@H](O)[C@H]3O)nn2)cc1
result: Insoluble

compound: COc1ccc(-c2oc3c(CC=C(C)C)c(O)cc(O)c3c(=O)c2OC(=O)CCC(=O)OCCOCc2cn(C3O[C@H](CO)[C@@H](O)[C@H](O)[C@H]3O)nn2)cc1 (stereo partly drawn)
result: Insoluble

compound: COc1ccc(-c2oc3c(CC=C(C)C)c(O)cc(O)c3c(=O)c2OC(=O)CCC(=O)OCCOCCOCCOCc2cn(C3OC(CO)C(O)C(O)C3O)nn2)cc1 (stereo not drawn)
result: 17.710 ± 1.012 µg/mL

compound: COc1ccc(-c2oc3c(CC=C(C)C)c(O)cc(O)c3c(=O)c2OC(=O)CCC(=O)OCc2cn(CCOC3OC(CO)C(O)C(O)C3O)nn2)cc1 (stereo not drawn)
result: 13.871 ± 1.031 µg/mL

compound: COc1ccc(-c2oc3c(CC=C(C)C)c(O)cc(O)c3c(=O)c2OC(=O)CCC(=O)OCCN(CCOCc2cn(CCO[C@@H]3O[C@H](CO)[C@@H](O)[C@H](O)[C@H]3O)nn2)c2ccccc2)cc1
result: Insoluble

compound: COc1ccc(-c2oc3c(CC=C(C)C)c(O)cc(O)c3c(=O)c2OC(=O)CCC(=O)OCCCCOCc2cn(CCOCCOC3OC(CO)C(O)C(O)C3O)nn2)cc1 (stereo not drawn)
result: Insoluble

Could you now look at the following compound, please?
The recorded Solubility, Water for COc1ccc(-c2oc3c(CC=C(C)C)c(O)cc(O)c3c(=O)c2OC(=O)CCC(=O)OCCCOCc2cn(CCOCCOC3OC(CO)C(O)C(O)C3O)nn2)cc1 (stereo not drawn) is 5.474 ± 0.394 µg/mL

* * *

Below, each entry is listed alongside its reported Solubility, PBS.
Assay: Determination of solubility (HPLC)
Assay type: physicochemical
Please state the figure in µg/mL; there is no need to write the unit.

molecule: COc1ccc(-c2oc3c(CC=C(C)C)c(O)cc(O)c3c(=O)c2OC(=O)CCC(=O)OCCCOCc2cn(CCOCCOC3OC(CO)C(O)C(O)C3O)nn2)cc1 (centres unmarked)
recorded-number: 5.031

Could you now look at the following molecule, please?
The recorded Solubility, PBS for COc1ccc(-c2oc3c(CC=C(C)C)c(O)cc(O)c3c(=O)c2OC(=O)CCC(=O)OCCOCCOCCOCc2cn(C3OC(CO)C(O)C(O)C3O)nn2)cc1 (centres unmarked) is 16.391

* * *

Test: Determination of solubility (HPLC)
Assay type: physicochemical

compound: COc1ccc(-c2oc3c(CC=C(C)C)c(O)cc(O)c3c(=O)c2OC(=O)CCC(=O)OCCOCCOCc2cn(CCO[C@@H]3O[C@H](CO)[C@@H](O)[C@H](O)[C@H]3O)nn2)cc1
Solubility, PBS: Insoluble

compound: COc1ccc(-c2oc3c(CC=C(C)C)c(O)cc(O)c3c(=O)c2OC(=O)CCC(=O)OCCN(CCOCc2cn(CCO[C@@H]3O[C@H](CO)[C@@H](O)[C@H](O)[C@H]3O)nn2)c2ccccc2)cc1
Solubility, PBS: Insoluble

compound: COc1ccc(-c2oc3c(CC=C(C)C)c(O)cc(O)c3c(=O)c2OC(=O)CCC(=O)OCCCCOCc2cn(CCOC3OC(CO)C(O)C(O)C3O)nn2)cc1 (stereo not drawn)
Solubility, PBS: Insoluble
